Let's look at some compounds and their measured log10 IC50.
# SYSTEM UNDER TEST: Indoleamine 2,3-dioxygenase 1 (Homo sapiens, UniProt P14902)
# Sequence (P14902 whole entry): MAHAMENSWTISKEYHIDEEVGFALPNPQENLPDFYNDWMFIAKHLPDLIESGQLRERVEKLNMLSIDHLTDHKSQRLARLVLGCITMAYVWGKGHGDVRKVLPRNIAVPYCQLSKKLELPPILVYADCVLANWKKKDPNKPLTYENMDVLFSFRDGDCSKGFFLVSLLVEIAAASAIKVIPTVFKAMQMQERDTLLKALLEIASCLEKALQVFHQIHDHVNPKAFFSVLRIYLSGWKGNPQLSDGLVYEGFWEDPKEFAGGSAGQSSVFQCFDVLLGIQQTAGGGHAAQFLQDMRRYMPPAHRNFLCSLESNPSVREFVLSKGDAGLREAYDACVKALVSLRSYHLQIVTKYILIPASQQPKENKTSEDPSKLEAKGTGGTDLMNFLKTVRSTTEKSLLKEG
# EXPERIMENT SUMMARY: Inhibition of IDO1 (unknown origin) using L-tryptophan substrate incubated for 60 mins by HPLC
# MEASUREMENT CONTEXT: read-out: IC50
Please note: log10 values; quantity IC50; unit µM.

Sample answers from the record:
COC(=O)/C(C#N)=C(\C#N)c1ccc(Br)o1    -0.15
c1ccc(-c2ccc(C(c3ccccc3)n3ccnc3)cc2)cc1 (stereo unspecified)    1.36
CC(=O)N1CCN(c2ccc(OCC3COC(Cn4ccnc4)(c4ccc(Cl)cc4Cl)O3)cc2)CC1 (stereo unspecified)    1.51

-- ask // returns reported log10 IC50 for input N#CC(C#N)=C1c2cc(S(N)(=O)=O)cc([N+](=O)[O-])c2-c2c1cc(S(N)(=O)=O)cc2[N+](=O)[O-]
-- reply 0.00

-- ask # lookup: log10 IC50 of C=CCOC(Cn1ccnc1)c1ccc(Cl)cc1Cl (stereo unspecified)
-- reply 1.36

-- ask I am curious: what log10 IC50 value has been reported for Cc1ccc(-n2nnnc2C/C=N/Nc2ccc(Cl)cc2)cc1 ?
-- reply 1.73

Each recorded value in this set is attributed to ChEMBL document CHEMBL3351924.
